- experimentalSystem: HIV-1 integrase (wild-type IN) (Human immunodeficiency virus type 1 group M subtype B)
- protocolSummary: HIV-1 integrase strand transfer assay (32P-labeled 21-mer, gel)
- Format: biochemical
- conditionSummary: unit inferred; read-out: IN inhibition activity Strand transfer
Would you kindly list pIC50 for each of these compounds?
One number for each entry, as −log10 of the molar value.

> print(dat)
                                   compound  reportedmeasurement
1  O=C(C1=C(O)C(=O)N(c2nc3ccccc3s2)C1c1ccc2c(c1)OCO2)c1ccccc1 (centres unmarked)                 4.68
2  O=C(O)CCCCCN1C(=O)C(O)=C(C(=O)c2ccc(Cl)cc2)C1c1ccc2c(c1)OCO2 (centres unmarked)                 4.70

// batch mode: one pIC50 value per listed entry
1. O=C(O)c1cc(-c2ccc(/C=N/Nc3nc4nonc4nc3Nc3ccccc3F)o2)ccc1Cl
2. N=C1NC(=O)/C(=C\c2ccc(-c3cccc(C(=O)O)c3)o2)S1
3. COc1ccc(-c2nnc(SCC(=O)NNC(=O)c3ccccc3O)n2-c2ccccc2)cc1OC
4. Cc1ccc(C(=O)C2=C(O)C(=O)N(c3ncc(S(=O)(=O)c4ccc([N+](=O)[O-])cc4)s3)C2c2cccc(Cl)c2)cc1 (centres unmarked)

Solution:
1. 4.89
2. 4.05
3. 4.68
4. 5.10

* * *

Would you kindly list pIC50 for each of these compounds?
- experimentalSystem: HIV-1 integrase (wild-type IN) (Human immunodeficiency virus type 1 group M subtype B)
- protocolSummary: HIV-1 integrase 3′-processing assay (32P-labeled 21-mer, gel)
- Type: biochemical
- conditionSummary: unit inferred; read-out: IN inhibition activity 3′-processing
One number for each entry, as −log10 of the molar value.

Example results:
> print(dat)
                                   compound  reportedmeasurement
1  O=C(CSc1nnc(Cc2ccccc2)n1-c1cccc(Cl)c1)NNC(=O)c1ccccc1O                 5.05
2  O=C(C1=C(O)C(=O)N(c2nc3ccccc3s2)C1c1ccc2c(c1)OCO2)c1ccccc1 (centres unmarked)                 4.24
3  O=C(O)c1cc(-c2ccc(/C=N/Nc3nc4nonc4nc3Nc3cccc(Br)c3)o2)ccc1O                 5.30

Recorded pIC50 (compound O=C(O)c1cc(-c2ccc(/C=N/Nc3nc4nonc4nc3Nc3ccccc3F)o2)ccc1Cl ): 4.80

* * *

- experimentalSystem: HIV-1 integrase (wild-type IN) (Human immunodeficiency virus type 1 group M subtype B, UniProt P12497)
- protocolSummary: HIV-1 integrase 3′-processing assay (32P-labeled 21-mer, gel)
- Format: biochemical
- conditionSummary: Table 54; read-out: IN inhibition activity 3′-processing
Would you kindly list IC50 for each of these molecules?
One number for each entry, in µM.

Example results:
> print(dat)
                               smilesrecord  reportedmeasurement
1  CCOc1cc(/C=C2\C(=O)N(c3nnn[nH]3)N=C2C)ccc1OC                   75
2  COc1ccc(/C=C2\C(=O)N(c3nnn[nH]3)N=C2C)cc1OCc1ccccc1Cl                   14
3  CC1=NN(c2nnn[nH]2)C(=O)/C1=C\c1cc(Cl)c(O)c(Cl)c1                   11
4  COc1cc(/C=C2\C(=O)N(c3nnn[nH]3)N=C2C)cc(Cl)c1OC                    5
5  CCOc1cc(N(CC)CC)ccc1/C=C1\C(=O)N(c2nnn[nH]2)N=C1C                   61

Now, please, on to the next molecule.
Recorded IC50 (molecule CCOc1cc(/C=C2\C(=O)N(c3nnn[nH]3)N=C2C)cc(Cl)c1OCC ): 7

* * *

Would you kindly list pIC50 for each of these compounds?
- experimentalSystem: HIV-1 integrase (wild-type IN) (Human immunodeficiency virus type 1 group M subtype B)
- protocolSummary: HIV-1 integrase 3′-processing assay (32P-labeled 21-mer, gel)
- Type: biochemical
- conditionSummary: unit inferred; read-out: HIV-1 IN Inhibitory Activities 3′-processing
One number for each entry, as −log10 of the molar value.

Example results:
> print(dat)
                               smilesrecord  reportedmeasurement
1  O=C(N/N=C1\C(=O)Nc2ccc(Br)cc21)/C(O)=C/C(=O)c1ccc(Cl)cc1                 4.38
2  O=C(N/N=C/c1cc(Br)ccc1O)/C(=C/C=C/c1ccccc1)NC(=O)c1ccccc1                 4.05
3  O=C(N/N=C1/C(=O)Nc2ccc(F)cc21)/C(=C/C=C/c1ccccc1)NC(=O)c1ccccc1                 4.22
4  COc1ccc2oc(=O)c(-c3csc(N/N=C/c4ccccc4O)n3)cc2c1                 4.52
5  O=C(c1ccccc1)c1cc(Br)ccc1NC(=O)c1nc[nH]c1C(=O)O                 4.80

Now, please, on to the next compound.
Recorded pIC50 (compound O=C(Nc1ccc(O)c(-c2nc3cc(Cl)ccc3o2)c1)c1cccnc1 ): 4.21

* * *

Would you kindly list IC50 for each of these compounds?
- experimentalSystem: UniProt:P12497
- protocolSummary: HIV-1 integrase 3′-processing assay (32P-labeled 21-mer, gel)
- Type: biochemical
- conditionSummary: unit inferred; read-out: IN inhibition activity 3′-processing
Numbers only, in µM.

> print(dat)
                                   compound  measuredproperty  reportedmeasurement
1  O=C(O)c1cc(-c2ccc(/C=C/c3cc(C(F)(F)F)[nH]c(=O)n3)o2)ccc1Cl              IC50                   74
2  O=C(CSc1nnc(-c2ccccc2O)n1Cc1ccccc1)NNC(=O)c1ccccc1O              IC50                   15

// batch mode: one IC50 value per listed entry
1. CC1=C(C#N)c2nc(N)c(C#N)c(C)c2/C1=C/c1ccc(-c2cccc(C(=O)O)c2)o1
2. Cc1ccc(C2C(C(=O)c3ccc(Cl)cc3)=C(O)C(=O)N2CC(=O)O)cc1 (centres unmarked)

Solution:
1: 24; 2: 84

* * *

- experimentalSystem: HIV-1 integrase (wild-type IN) (Human immunodeficiency virus type 1 group M subtype B)
- protocolSummary: HIV-1 integrase strand transfer assay (32P-labeled 21-mer, gel)
- Format: biochemical
- conditionSummary: Table 54; read-out: IN inhibition activity Strand transfer
measuredProperty: pIC50
Answers are plain numbers, as −log10 of the molar value.

Example results:
> print(dat)
                               smilesrecord                        experimentalsystem  measuredproperty  reportedmeasurement
1  CCOc1cc(N(CC)CC)ccc1/C=C1\C(=O)N(c2nnn[nH]2)N=C1C  HIV-1 integrase (wild-type IN) (Human immunodeficiency virus type 1 group M subtype B)             pIC50                 4.19
2  CCOc1cc(/C=C2\C(=O)N(c3nnn[nH]3)N=C2C)cc(Cl)c1OCC  HIV-1 integrase (wild-type IN) (Human immunodeficiency virus type 1 group M subtype B)             pIC50                 5.40
3  COc1ccc(/C=C2\C(=O)N(c3nnn[nH]3)N=C2C)cc1OCc1ccccc1Cl  HIV-1 integrase (wild-type IN) (Human immunodeficiency virus type 1 group M subtype B)             pIC50                 5.30

// batch mode: one pIC50 value per listed entry
1. COc1cc(/C=C2\C(=O)N(c3nnn[nH]3)N=C2C)cc(Cl)c1OC
2. CC1=NN(c2nnn[nH]2)C(=O)/C1=C\c1cc(Cl)c(O)c(Cl)c1
3. CCOc1cc(/C=C2\C(=O)N(c3nnn[nH]3)N=C2C)ccc1OC

Solution:
1. 5.40
2. 4.89
3. 4.23

* * *

- experimentalSystem: HIV-1 integrase (wild-type IN) (Human immunodeficiency virus type 1 group M subtype B, UniProt P12497)
- protocolSummary: HIV-1 integrase strand transfer assay (32P-labeled 21-mer, gel)
- Type: biochemical
- conditionSummary: unit inferred; read-out: IN inhibition activity Strand transfer
measuredProperty: pIC50
Numbers only, as −log10 of the molar value.

// batch mode: one pIC50 value per listed entry
1. Cc1ccc(-n2c(SCC(=O)NNC(=O)c3ccccc3O)nnc2-c2ccccc2O)cc1
2. O=C(O)CSc1nnc(-c2ccco2)c(-c2ccco2)n1
3. CC1=C(C#N)c2nc(N)c(C#N)c(C)c2/C1=C/c1ccc(-c2cccc(C(=O)O)c2)o1
4. O=C(O)c1cc(-c2ccc(/C=N/Nc3nc4nonc4nc3Nc3cccc(Br)c3)o2)ccc1O

Solution:
1. 5.52
2. 5.30
3. 4.70
4. 5.47

// batch mode: one pIC50 value per listed entry
1. N#C/C(=C\c1ccc(-c2cccc(C(=O)O)c2)o1)c1nc2ccccc2[nH]1
2. O=C(O)c1cccc(-c2ccc(/C=N/N(c3ccccc3)c3ccccc3)o2)c1
3. Cc1ccc(C(=O)C2=C(O)C(=O)N(CCCn3ccnc3)C2c2ccc(Cl)cc2)cc1 (stereo not drawn)

Solution:
1. 4.77
2. 4.59
3. 4.17
